compounds and their reported viability at 10 µM
experiment: Cytotoxicity against human L540 cells assessed as cell viability at 10 uM after 72 to 96 hrs by JC-1 staining-based fluorescence assay; set-up: species or system L-540; settings: read-out: Activity

Observe how each entry below is paired with its result.
| mol | viability at 10 µM |
| --- | --- |
| Cc1cc(C#N)ccc1N1CCN(S(=O)(=O)N2CSC[C@@H]2C(=O)NO)CC1 | > 96% |
| Cc1cc(C#N)ccc1N1CCN(S(=O)(=O)N[C@H](CCCNC(=O)OCc2ccccc2)C(=O)NO)CC1 | > 96% |

// next item, viability at 10 µM requested
Q) Form field: reported viability at 10 µM of O=C(NCCC[C@@H](NS(=O)(=O)c1ccc(OCc2cc(Br)cc(Br)c2)cc1)C(=O)NO)OCc1ccccc1
A) > 96%
